Values were extracted from patent US20130330346A1.

- tested.on: T1, Human CXCR2 (human, UniProt P25025 1-360)
- T1 sequence: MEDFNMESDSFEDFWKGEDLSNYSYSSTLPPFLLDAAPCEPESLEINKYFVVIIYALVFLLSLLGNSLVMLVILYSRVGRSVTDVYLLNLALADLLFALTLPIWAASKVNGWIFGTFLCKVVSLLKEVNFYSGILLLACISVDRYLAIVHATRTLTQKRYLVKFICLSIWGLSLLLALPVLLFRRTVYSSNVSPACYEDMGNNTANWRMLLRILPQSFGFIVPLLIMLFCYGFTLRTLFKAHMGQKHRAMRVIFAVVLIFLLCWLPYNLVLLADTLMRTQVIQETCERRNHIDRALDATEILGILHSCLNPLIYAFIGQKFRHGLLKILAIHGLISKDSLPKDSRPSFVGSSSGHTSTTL
- assay.summary: cell-based or functional assay
readout: [35S]GTPγS % inhibition of max (IL-8) (%)
Expressed in %, but write only the number.

Which [35S]GTPγS % inhibition of max (IL-8) value is on record for CXCR20020 (bispecific antibody, Biparatopic: two VHH joined by a GlySer linker; also called 127D1-35GS-163D2; 127D1-163D2; not shown: C-terminal c-myc tag and His6 tag coded by pAX100) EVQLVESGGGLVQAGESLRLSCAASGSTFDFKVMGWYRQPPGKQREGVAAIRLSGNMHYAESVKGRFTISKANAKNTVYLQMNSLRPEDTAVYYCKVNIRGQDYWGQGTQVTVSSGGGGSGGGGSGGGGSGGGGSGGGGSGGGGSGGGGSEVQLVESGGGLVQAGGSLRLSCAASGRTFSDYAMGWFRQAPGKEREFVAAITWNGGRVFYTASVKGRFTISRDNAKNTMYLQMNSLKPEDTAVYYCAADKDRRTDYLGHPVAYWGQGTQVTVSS ?
100

Now consider CXCR20032 (bispecific antibody, Biparatopic: two VHH joined by a GlySer linker; also called 2B2-35GS-163D2; not shown: C-terminal c-myc tag and His6 tag coded by pAX100) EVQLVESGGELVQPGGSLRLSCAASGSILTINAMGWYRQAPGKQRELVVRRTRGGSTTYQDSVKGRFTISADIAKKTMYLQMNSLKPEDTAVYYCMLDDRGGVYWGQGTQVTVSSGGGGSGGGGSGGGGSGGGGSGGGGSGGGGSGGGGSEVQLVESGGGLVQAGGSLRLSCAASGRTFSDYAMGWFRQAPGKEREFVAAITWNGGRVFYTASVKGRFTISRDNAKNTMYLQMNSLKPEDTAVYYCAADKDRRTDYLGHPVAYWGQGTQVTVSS .
100
